Where do the numbers come from? From patent US20190359687A1.

Test system: T1, Cynomolgus monkey glycophorin A on Cynomolgus monkey red blood cells or red blood cell membranes (Cynomolgus monkey)
T1 construct: whole, on cells; also called Cyno RBC; Cynomolgus monkey RBC membranes
Test details: Fab on intact cyno RBC, unbound Fab by ELISA; 60 min after 200-fold dilution
Assay readout: percentage of input antibody bound (%)
One number for each entry, in %.

Could you share which percentage of input antibody bound value was measured for TPP-7792, affinity matured 6C12 Fab (Fab, V domains shown, Tested as Fab with a 6xHIS tag) VH: EVQLVQSGAEVKKPGASVKVSCKASGYTFTTYAIHWVRQAPGQGLEWMGYINPSSGYTRYNPKFKGRVTMTRDKSTSTAYMELRSLRSDDTAVYYCWTGTRDYWGQGTTVTVSS VL: DIQLTQSPSFLSASVGDRVTITCRASSSVRYIYWFQQKPGKAPKLLIYATSFRQSGVPSRFSGSGSGTEYTLTISSLQPEDFATYYCHQRNSFPYTFGQGTKLEIK ?
92
